target: Protein kinase C alpha type (Homo sapiens, UniProt P17252); assay: Displacement of PDBU from recombinant Protein kinase C alpha with phosphatidylserine
Exercise: state measured pKi for each of the compounds provided.
pKi (log units): -log10 of the concentration in mol/L.

Any idea what its pKi is? The compound is CC(C)[C@H]1C(=O)N[C@H](CO)Cc2cc(NC(=O)/C=C/C=C/c3ccccc3)ccc2N1C
7.80

Any idea what its pKi is? The compound is CC(C)[C@H]1C(=O)N[C@H](CO)Cc2cc(NC(=O)CCCCc3ccc(C(F)(F)F)cc3)ccc2N1C
7.90

Any idea what its pKi is? The compound is CC(C)[C@H]1C(=O)N[C@H](CO)Cc2cc(NC(=O)/C=C/C=C/c3cc(C(F)(F)F)cc(C(F)(F)F)c3)ccc2N1C
8.25

Any idea what its pKi is? The compound is CC(C)[C@H]1C(=O)N[C@H](CO)Cc2cc(NC(=O)CCCCc3cc(C(F)(F)F)cc(C(F)(F)F)c3)ccc2N1C
8.11

Any idea what its pKi is? The compound is CC(C)[C@H]1C(=O)N[C@H](CO)Cc2cc(NC(=O)CCCCc3ccccc3)ccc2N1C
7.47

Any idea what its pKi is? The compound is CC(C)[C@H]1C(=O)N[C@H](CO)Cc2cc(NC(=O)CCCCc3ccc(CCC(F)(F)C(F)(F)C(F)(F)C(F)(F)C(F)(F)C(F)(F)F)cc3)ccc2N1C
8.04

Any idea what its pKi is? The compound is C/C=C/C=C/C(=O)Nc1ccc2c(c1)C[C@@H](CO)NC(=O)[C@H](C(C)C)N2C
5.71

Any idea what its pKi is? The compound is CC(C)[C@H]1C(=O)N[C@H](CO)Cc2cc(NC(=O)/C=C/C=C/c3ccc(C(F)(F)F)cc3)ccc2N1C
7.92

Any idea what its pKi is? The compound is CC(C)[C@H]1C(=O)N[C@H](CO)Cc2cc(NC(=O)/C=C/C=C/c3ccc(/C=C/C(F)(F)C(F)(F)C(F)(F)C(F)(F)C(F)(F)C(F)(F)F)cc3)ccc2N1C
7.95
